# system tested: Fibroblast growth factor 2 (Homo sapiens) (UniProt P09038)
# Sequence (P09038 whole entry, looked up): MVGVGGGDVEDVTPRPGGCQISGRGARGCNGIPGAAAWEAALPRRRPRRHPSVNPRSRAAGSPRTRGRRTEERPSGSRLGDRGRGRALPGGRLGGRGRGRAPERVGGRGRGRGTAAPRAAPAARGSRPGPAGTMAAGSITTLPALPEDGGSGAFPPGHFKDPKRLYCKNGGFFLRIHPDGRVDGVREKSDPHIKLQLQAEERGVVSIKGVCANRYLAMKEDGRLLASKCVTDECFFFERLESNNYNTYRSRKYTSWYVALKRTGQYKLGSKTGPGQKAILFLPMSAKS
# experiment: FGF2 binders on small-molecule microarrays, primary screen, biochemical, small-molecule microarray, 635/667 nm fluorescence (AID 1133)
# protocol conditions: small-molecule microarray binding, FGF2, fluorescence 635/667; higher = more signal
Short version: composite z-score at least 0.01 is satisfied, less is not satisfied.

>>> label_class("COc1ccc(CCNC(=O)[C@@]2(C)c3ccccc3C(=O)N(C(C)C)[C@H]2c2ccc(CO)cc2)cc1")
"satisfied"

Attention now shifts to the item below.
Answer whether composite z-score of COCCOC(=O)N1C(=O)[C@@]2(c3cc(C#CC4(O)CCCCCC4)ccc31)[C@H](c1ccc(OCCO)cc1)N1[C@H](c3ccccc3)[C@H](c3ccccc3)OC(=O)[C@H]1[C@@H]2C(=O)N1CCN(c2ncccn2)CC1 is greater than or equal to 0.01.
satisfied
